- study system: CCR2 (Homo sapiens)
- Construct: host or cells: THP-1 cells
- Sequence (P41597 1-360 isoform P41597-2): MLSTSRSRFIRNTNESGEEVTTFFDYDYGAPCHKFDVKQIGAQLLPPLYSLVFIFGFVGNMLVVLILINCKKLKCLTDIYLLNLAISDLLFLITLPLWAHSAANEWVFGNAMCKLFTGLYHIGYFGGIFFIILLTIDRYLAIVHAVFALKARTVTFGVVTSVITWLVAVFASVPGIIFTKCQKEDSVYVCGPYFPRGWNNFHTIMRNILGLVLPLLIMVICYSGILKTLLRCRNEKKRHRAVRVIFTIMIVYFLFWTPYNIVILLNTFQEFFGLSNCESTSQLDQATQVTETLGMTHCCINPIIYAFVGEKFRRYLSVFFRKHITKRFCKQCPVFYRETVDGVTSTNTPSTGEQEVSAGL
- assay details: MCP-1 Receptor Binding Assay in THP-1 Cells
- particulars: test concentration of 25 μM; given where an IC50 value was not obtained; read-out: Inhibition of MCP-1 Binding, percent inhibition
property measured: inhibition at 25 µM (%)
Give bare numbers, in %.

Reference set, count: 8
Missing value: inhibition at 25 µM, CCR2 (Homo sapiens), entry OC(CN1CCC(c2c[nH]c3ccc(N4CCOCC4)cc23)CC1)C1(O)CCN(c2nccc(C(F)(F)F)n2)CC1 (stereo not drawn) . Fill in? 51

Missing value: inhibition at 25 µM, CCR2 (Homo sapiens), entry OC(CN1CCC(c2nc3ccccc3[nH]2)CC1)C1(O)CCN(c2nccc(C(F)(F)F)n2)CC1 (stereo not drawn) . Fill in? 50

Missing value: inhibition at 25 µM, CCR2 (Homo sapiens), entry COc1ccc(C2CCN(CC(O)C3CCN(C(=O)Nc4ccc5c(c4)OCO5)CC3)CC2)cc1 (stereo not drawn) . Fill in? 50

Missing value: inhibition at 25 µM, CCR2 (Homo sapiens), entry O=C(/C=C/c1ccsc1)N1CCC(O)(C(O)CN2CCC(c3c[nH]c4ccc(N5CCOCC5)cc34)CC2)CC1 (stereo not drawn) . Fill in? 59

Missing value: inhibition at 25 µM, CCR2 (Homo sapiens), entry O=C(O)C(CC1CCN(C(=O)Nc2ccc(Cl)c(Cl)c2)CC1)N1CCC(c2c[nH]c3ccccc23)CC1 (stereo not drawn) . Fill in? 55

Missing value: inhibition at 25 µM, CCR2 (Homo sapiens), entry CC(=O)Nc1ccc2[nH]cc(C3CCN(CC(O)C4CCNCC4)CC3)c2c1 (stereo not drawn) . Fill in? 54

Missing value: inhibition at 25 µM, CCR2 (Homo sapiens), entry CC(C)(C)OC(=O)N1CCC(O)(C(O)CN2CCC(c3ccc(Cl)cc3)CC2)CC1 (stereo not drawn) . Fill in? 41

Missing value: inhibition at 25 µM, CCR2 (Homo sapiens), entry COc1cccc(/C=C/C(=O)N2CCC(O)(C(O)CN3CCC(c4c[nH]c5ccc(N6CCOCC6)cc45)CC3)CC2)c1 (stereo not drawn) . Fill in? 53

// batch mode: one inhibition at 25 µM value per listed entry
1. CCOC(=O)C(CC1CCN(C(=O)C=Cc2cc(F)c(F)c(F)c2)CC1)N1CCC(c2c[nH]c3ccccc23)CC1 (stereo not drawn)
2. O=C(OCc1ccccc1)N1CCC(O)(C(O)CN2CCC(c3ccc(C(F)(F)F)cc3)CC2)CC1 (stereo not drawn)
3. OC(CN1CCC(c2c[nH]c3ccc(N4CCOCC4)cc23)CC1)C1(O)CCN(C(=S)Nc2cc(F)cc(F)c2)CC1 (stereo not drawn)
4. Cc1cccc(C=CC(=O)N2CCC(CC(C(=O)O)N3CCC(c4c[nH]c5ccccc45)CC3)CC2)c1 (stereo not drawn)
5. CCOC(=O)C(CC1CCN(C(=O)Nc2ccc(Cl)c(Cl)c2)CC1)N1CCC(c2c[nH]c3ccccc23)CC1 (stereo not drawn)
6. O=C(OCc1ccccc1)N1CCC(O)(C(O)CN2CCC(c3ccc(F)cc3)CC2)CC1 (stereo not drawn)
7. COc1ccc(C2CCN(CC(O)C3CCN(C(=O)Nc4ccc(C(F)(F)F)cc4Cl)CC3)CC2)cc1 (stereo not drawn)

1. 44
2. 55
3. 47
4. 48
5. 53
6. 51
7. 51

// batch mode: one inhibition at 25 µM value per listed entry
1. O=C(Cc1cccc([N+](=O)[O-])c1)N1CCC(O)(C(O)CN2CCC(c3c[nH]c4ccc(N5CCOCC5)cc34)CC2)CC1 (stereo not drawn)
2. COc1ccc(C2CCN(CC(O)C3(O)CCN(C(=S)Nc4cc(OC)cc(OC)c4)CC3)CC2)cc1 (stereo not drawn)
3. CC(=O)Nc1ccc2[nH]cc(C3CCN(CC(O)C4CCN(C(=O)OCc5ccccc5)CC4)CC3)c2c1 (stereo not drawn)
4. CCOC(=O)C(CC1CCN(C(=O)C=Cc2cccc(C)c2)CC1)N1CCC(c2c[nH]c3ccccc23)CC1 (stereo not drawn)
5. CCOC(=O)C(CC1CCN(C(=O)C=Cc2cc(F)cc(F)c2)CC1)N1CCC(c2c[nH]c3ccccc23)CC1 (stereo not drawn)
6. COc1ccc(C2CCN(CC(C(=O)O)C3CCN(C(=O)C=Cc4cc(F)c(F)c(F)c4)CC3)CC2)cc1 (stereo not drawn)

[42, 43, 61, 48, 48, 52]
